Each recorded value in this set is attributed to patent US10065990B2.

Documented GI50 across a set of molecules
# Test system: SGC-7901 (human gastric cancer cells)
# PROTOCOL NOTES: MTT cancer cell growth inhibition
# Type: cell-based
# CONDITION LABEL: Homo sapiens, SGC-7901, 72 h, MTT, 72 hours incubation, SGC-7901 cells; read-out: GI50 SGC-7901
METRIC: GI50 (nM)

C=C1NC(=O)c2ccc(F)c(n2)CNC(=O)C[C@@H](/C=C/CCSC(C)=O)OC(=O)[C@H](C(C)C)NC1=O: 28
C/C=C1\NC(=O)c2nc(ccc2F)CNC(=O)C[C@@H](/C=C/CCSC(C)=O)OC(=O)[C@H](CCCCN)NC1=O: 26
C/C=C1\NC(=O)c2nc(ccc2F)CNC(=O)C[C@@H](/C=C/CCS)OC(=O)[C@H](C(C)C)NC1=O: 35
C/C=C1\NC(=O)c2cc(F)cc(n2)CNC(=O)C[C@@H](/C=C/CCSC(C)=O)OC(=O)[C@H](C)NC1=O: 35
C/C=C1\NC(=O)c2ccc(SCC)c(n2)CNC(=O)C[C@@H](/C=C/CCSC(=O)CCCCCC)OC(=O)[C@H](C(C)C)NC1=O: 35
C/C=C1\NC(=O)c2cccc(n2)CNC(=O)C[C@@H](/C=C/CCSC(=O)CC)OC(=O)[C@H](C(C)C)NC1=O: 51
C=C1NC(=O)c2cccc(n2)CNC(=O)C[C@@H](/C=C/CCSC(C)=O)OC(=O)[C@H](C(C)C)NC1=O: 52

====

# SUBJECT OF TEST: HDAC3 (Homo sapiens, UniProt O15379)
# Sequence (O15379 whole entry, species assumed): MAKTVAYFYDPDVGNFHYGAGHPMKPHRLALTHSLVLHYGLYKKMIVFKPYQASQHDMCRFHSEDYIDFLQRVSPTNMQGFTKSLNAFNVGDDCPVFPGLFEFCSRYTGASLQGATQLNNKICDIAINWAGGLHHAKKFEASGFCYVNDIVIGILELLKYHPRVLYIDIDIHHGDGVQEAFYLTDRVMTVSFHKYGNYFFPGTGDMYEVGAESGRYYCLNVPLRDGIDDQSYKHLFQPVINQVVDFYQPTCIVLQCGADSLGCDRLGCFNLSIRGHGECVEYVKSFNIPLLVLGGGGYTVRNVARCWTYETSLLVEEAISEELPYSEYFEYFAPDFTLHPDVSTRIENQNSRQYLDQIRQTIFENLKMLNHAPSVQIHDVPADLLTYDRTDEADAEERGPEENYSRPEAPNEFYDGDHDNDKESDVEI
# Sequence (Q9Y618 395-489 partner limits assumed, species assumed): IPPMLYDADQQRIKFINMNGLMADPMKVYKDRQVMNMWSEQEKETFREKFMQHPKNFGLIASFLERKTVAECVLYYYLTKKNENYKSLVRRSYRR
# PROTOCOL NOTES: HDAC biochemical activity measurement (fluorescent substrate deacetylation);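 also: fluorogenic acetyl-lysine substrate (20 µM) deacetylated by HDAC3, then developer added for 15 min at room temperature, release of fluorophore read at excitation 360 nm, emission 460 nm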
# CONDITION LABEL: read-out: IC50 HDAC3; HDAC3; 37° C. 30 minutes
Friendly reminder: IC50 below 0.04 µM is TRUE, at or above is FALSE.

C/C=C1\NC(=O)c2cc(F)cc(n2)CNC(=O)C[C@@H](/C=C/CCSC(=O)CCCCCCC)OC(=O)[C@H](Cc2ccccc2)NC1=O: TRUE
C/C=C1\NC(=O)c2cccc(n2)CNC(=O)C[C@@H](/C=C/CCSC(=O)CCCCCCC)OC(=O)[C@H](Cc2cccc3ccccc23)NC1=O: FALSE
C/C=C1\NC(=O)c2cccc(n2)CNC(=O)C[C@@H](/C=C/CCSC(=O)CCCCCCC)OC(=O)[C@H](C)NC1=O: FALSE
C/C=C1\NC(=O)c2cc(F)cc(n2)CNC(=O)C[C@@H](/C=C/CCSC(C)=O)OC(=O)[C@H](CCCCNC(=O)OCC2c3ccccc3-c3ccccc32)NC1=O: FALSE
C/C=C1\NC(=O)c2cccc(n2)CNC(=O)C[C@@H](/C=C/CCSC(=O)CCCCCCC)OC(=O)[C@H](CC)NC1=O: TRUE
C/C=C1\NC(=O)c2nc(cc(SC)n2)CNC(=O)C[C@@H](/C=C/CCSC(C)=O)OC(=O)[C@H](C(C)C)NC1=O: FALSE
CC(=O)SCC/C=C/[C@@H]1CC(=O)NCc2cccc(n2)C(=O)NC(=C(C)C)C(=O)N[C@@H](C(C)C)C(=O)O1: FALSE
C/C=C1\NC(=O)c2cccc(n2)CNC(=O)C[C@@H](/C=C/CCSC(C)=O)OC(=O)[C@H](Cc2ccc(O)cc2)NC1=O: FALSE
C/C=C1\NC(=O)c2cccc(n2)CNC(=O)C[C@@H](/C=C/CCSC(=O)CCCCCCC)OC(=O)CNC1=O: TRUE
C/C=C1\NC(=O)c2cccc(n2)CNC(=O)C[C@@H](/C=C/CCSC(C)=O)OC(=O)[C@H](CCCCNC(=O)OCC2c3ccccc3-c3ccccc32)NC1=O: FALSE
C/C=C1\NC(=O)c2cccc(n2)CNC(=O)C[C@@H](/C=C/CCSC(C)=O)OC(=O)[C@H](C)NC1=O: FALSE
CCCCCCCC(=O)SCC/C=C/[C@@H]1CC(=O)NCc2cccc(n2)C(=O)NC(CC)C(=O)N[C@@H](C(C)C)C(=O)O1 (stereo partly drawn): FALSE
C/C=C1\NC(=O)c2cc(F)cc(n2)CNC(=O)C[C@@H](/C=C/CCSC(=O)CCCC)OC(=O)[C@H](C(C)C)NC1=O: FALSE
C/C=C1\NC(=O)c2ncc(SC)c(n2)CNC(=O)C[C@@H](/C=C/CCSC(C)=O)OC(=O)[C@H](C(C)C)NC1=O: FALSE
C/C=C1\NC(=O)c2nc(ccc2F)CNC(=O)C[C@@H](/C=C/CCSC(=O)CCCCCCC)OC(=O)[C@H](C(C)C)NC1=O: TRUE
C/C=C1\NC(=O)c2ccc(F)c(n2)CNC(=O)C[C@@H](/C=C/CCSC=O)OC(=O)[C@H](C(C)C)NC1=O: TRUE
C/C=C1\NC(=O)c2cc(F)cc(n2)CNC(=O)C[C@@H](/C=C/CCSC(=O)CC)OC(=O)[C@H](C(C)C)NC1=O: TRUE

====

# System: Bel-7402 (human hepatoma cells)
# PROTOCOL NOTES: MTT cancer cell growth inhibition
# Type: cell-based
# CONDITION LABEL: Homo sapiens, Bel-7402, 72 h, MTT, 72 hours incubation, Bel-7402 cells; read-out: GI50 Bel-7402
METRIC: GI50 (nM)

C/C=C1\NC(=O)c2cc(SC)cc(n2)CNC(=O)C[C@@H](/C=C/CCSC(=O)CC)OC(=O)[C@H](C(C)C)NC1=O [Compound 163]: 26
C/C=C1\NC(=O)c2ccc(F)c(n2)CNC(=O)C[C@@H](/C=C/CCS)OC(=O)[C@H](Cc2ccc(O)cc2)NC1=O [Compound 130]: 32
C/C=C1\NC(=O)c2cc(SC)cc(n2)CNC(=O)C[C@@H](/C=C/CCSC(=O)CCCCCCC)OC(=O)[C@H](C(C)C)NC1=O [Compound 148]: 53

====

# System: N-87 (human gastric cancer cells)
# PROTOCOL NOTES: MTT cancer cell growth inhibition
# Assay type: cell-based
# CONDITION LABEL: Homo sapiens, 72 h, MTT, 72 hours incubation, N-87 cells; read-out: GI50 N-87
METRIC: GI50 (nM)

C/C=C1\NC(=O)c2cccc(n2)CNC(=O)C[C@@H](/C=C/CCS)OC(=O)[C@H](Cc2cccc3ccccc23)NC1=O [Compound 123]: 62
C/C=C1\NC(=O)c2cc(F)cc(n2)CNC(=O)C[C@@H](/C=C/CCS)OC(=O)[C@H](CC)NC1=O [Compound 110]: 35
C/C=C1\NC(=O)c2ccc(SC)c(n2)CNC(=O)C[C@@H](/C=C/CCSC(=O)CCCCCCC)OC(=O)[C@H](Cc2ccccc2)NC1=O [Compound 191]: 11
C/C=C1\NC(=O)c2ccc(F)c(n2)CNC(=O)C[C@@H](/C=C/CCS)OC(=O)[C@H](CCCCNC(=O)OCC2c3ccccc3-c3ccccc32)NC1=O [Compound 122]: 48
C/C=C1\NC(=O)c2nc(F)cc(n2)CNC(=O)C[C@@H](/C=C/CCSC(C)=O)OC(=O)[C@H](C(C)C)NC1=O [Compound 96]: 27
C/C=C1\NC(=O)c2ccc(F)c(n2)CNC(=O)C[C@@H](/C=C/CCSC(C)=O)OC(=O)[C@H](CCCCN)NC1=O [Example 74]: 37
C/C=C1\NC(=O)c2cccc(n2)NC(=O)C[C@@H](/C=C/CCSC(C)=O)OC(=O)[C@H](C(C)C)NC1=O [Example 22]: 39
C/C=C1\NC(=O)c2nc(cc(SC)n2)CNC(=O)C[C@@H](/C=C/CCSC(C)=O)OC(=O)[C@H](C)NC1=O [Compound 218]: 65
C/C=C1\NC(=O)c2cc(F)cc(n2)CNC(=O)C[C@@H](/C=C/CCSC(=O)CC)OC(=O)[C@H](C(C)C)NC1=O [Compound 46]: 43
C/C=C1\NC(=O)c2nc(ccc2F)CNC(=O)C[C@@H](/C=C/CCS)OC(=O)[C@H](CCCCN)NC1=O [Compound 116]: 43
C/C=C1\NC(=O)c2ccc(SCC)c(n2)CNC(=O)C[C@@H](/C=C/CCSC(=O)CCCCC)OC(=O)[C@H](C(C)C)NC1=O [Compound 255]: 51
C/C=C1\NC(=O)c2cc(SC)cc(n2)CNC(=O)C[C@@H](/C=C/CCSC(C)=O)OC(=O)[C@H](C(C)C)NC1=O [Compound 166]: 73
C/C=C1\NC(=O)c2nc(ccc2SC)CNC(=O)C[C@@H](/C=C/CCSC(C)=O)OC(=O)[C@@H](C)NC1=O [Compound 220]: 46
C/C=C1\NC(=O)c2cccc(n2)CNC(=O)C[C@@H](/C=C/CCSC(C)=O)OC(=O)[C@H](Cc2ccccc2)NC1=O [Compound 13]: 31
C/C=C1\NC(=O)c2ccc(SC)c(n2)CNC(=O)C[C@@H](/C=C/CCSC=O)OC(=O)[C@H](C(C)C)NC1=O [Compound 170]: 62
C/C=C1\NC(=O)c2cccc(n2)CNC(=O)C[C@@H](/C=C/CCSC(=O)CCCCCCC)OC(=O)[C@H](CSCC)NC1=O [Compound 242]: 31
C/C=C1\NC(=O)c2nc(ccc2SCCC)CNC(=O)C[C@@H](/C=C/CCSC(=O)CCCCCCC)OC(=O)[C@H](CC)NC1=O [Compound 174]: 31
C/C=C1\NC(=O)c2ccc(SCC)c(n2)CNC(=O)C[C@@H](/C=C/CCSC(=O)CCCCCCC)OC(=O)[C@H](C(C)C)NC1=O [Compound 249]: 45
C/C=C1\NC(=O)c2cc(F)cc(n2)CNC(=O)C[C@@H](/C=C/CCSC(C)=O)OC(=O)[C@H](C)NC1=O [Compound 64]: 30
C/C=C1\NC(=O)c2nc(ccc2SC)CNC(=O)C[C@@H](/C=C/CCSC(C)=O)OC(=O)[C@H](CC)NC1=O [Compound 177]: 37
